system: RAW264.7; assay: Antiinflammatory activity against LPS-induced mouse RAW264.7 cells assessed as inhibition of NO production preincubated for 1 hr followed by LPS stimulation and measured after 24 hrs by Greiss reagent based assay; assay type: functional, cell-based
quantity measured: IC50 (µM)

(a) C=CC(C)(C)C(=O)Nc1cccc2c1C(=O)C[C@H]1NC[C@@H](C)[C@H](OC(C)=O)[C@H]21
(b) COc1ccc2c(c1)c(CC(=O)O)c(C)n2C(=O)c1ccc(Cl)cc1 [INDOMETHACIN]
(c) C=CC(C)(C)C(=O)Nc1cccc2c1C(=O)C[C@@H]1[C@H]2[C@H](OC(C)=O)[C@@H](C)CN1C
Reorder: IC50, max to min. API: response body holds the labels in the requested order.
a, b, c

(A) C=CC(C)(C)C(=O)Nc1cccc2c1C(=O)C[C@H]1NC[C@H](C)[C@@H](OC(C)=O)[C@@H]21
(B) C=CC(C)(C)C(=O)Nc1cccc2c1C(=O)C[C@@H]1[C@@H]2[C@@H](OC(C)=O)[C@H](C)CN1C
Which record would sort first by descending IC50, A or B ? Give the label under which the chosen entry appears.
B
(B: 43.2 µM, A: 7.83 µM)
